- TEST_TARGET: Carbonic anhydrase 2 (Homo sapiens) (UniProt P00918)
- EXPERIMENT: Activation of human CA-2 incubated for 15 mins prior to testing by stopped flow CO2 hydrase assay
MEASURED_ENDPOINT: KA (µM)

{"COMPOUND": "Fc1cc(F)c(F)c(C2NCCc3nc[nH]c32)c1F (centres undefined)", "MEAS_VALUE": 0.6}
{"COMPOUND": "Clc1ccc(C2NCCc3[nH]cnc32)cc1 (centres undefined)", "MEAS_VALUE": 8.49}
{"COMPOUND": "Brc1ccccc1C1NCCc2nc[nH]c21 (centres undefined)", "MEAS_VALUE": 2.8}
{"COMPOUND": "COc1ccc(C2NCCc3nc[nH]c32)cc1OC (centres undefined)", "MEAS_VALUE": 0.71}
{"COMPOUND": "c1ccc(C2NCCc3[nH]cnc32)cc1 (centres undefined)", "MEAS_VALUE": 16.3}
{"COMPOUND": "c1coc(C2NCCc3nc[nH]c32)c1 (centres undefined)", "MEAS_VALUE": 5.12}
{"COMPOUND": "Oc1ccccc1C1NCCc2nc[nH]c21 (centres undefined)", "MEAS_VALUE": 1.62}
{"COMPOUND": "CN(C)c1ccc(C2NCCc3nc[nH]c32)cc1 (centres undefined)", "MEAS_VALUE": 7.44}
{"COMPOUND": "Cc1ccc(C2NCCc3nc[nH]c32)cc1 (centres undefined)", "MEAS_VALUE": 17.2}
{"COMPOUND": "COc1cc(C2NCCc3nc[nH]c32)cc(OC)c1OC (centres undefined)", "MEAS_VALUE": 3.26}
{"COMPOUND": "N#Cc1ccc(C2NCCc3nc[nH]c32)cc1 (centres undefined)", "MEAS_VALUE": 7.25}
{"COMPOUND": "COc1ccc(C2NCCc3[nH]cnc32)cc1 (centres undefined)", "MEAS_VALUE": 7.31}
{"COMPOUND": "Oc1ccc(Br)cc1C1NCCc2nc[nH]c21 (centres undefined)", "MEAS_VALUE": 1.03}
{"COMPOUND": "Cc1ccc(Br)cc1C1NCCc2nc[nH]c21 (centres undefined)", "MEAS_VALUE": 15.5}
